Experimental System: T1, GST-hHR23A, residues 1–363 (WT hHR23AFL) (human, UniProt P54725 1-363)
T1 construct: human hHR23A, full length, residues 1–363; also called GST-tagged WT hHR23A; source: recombinant
T1 sequence (looked up): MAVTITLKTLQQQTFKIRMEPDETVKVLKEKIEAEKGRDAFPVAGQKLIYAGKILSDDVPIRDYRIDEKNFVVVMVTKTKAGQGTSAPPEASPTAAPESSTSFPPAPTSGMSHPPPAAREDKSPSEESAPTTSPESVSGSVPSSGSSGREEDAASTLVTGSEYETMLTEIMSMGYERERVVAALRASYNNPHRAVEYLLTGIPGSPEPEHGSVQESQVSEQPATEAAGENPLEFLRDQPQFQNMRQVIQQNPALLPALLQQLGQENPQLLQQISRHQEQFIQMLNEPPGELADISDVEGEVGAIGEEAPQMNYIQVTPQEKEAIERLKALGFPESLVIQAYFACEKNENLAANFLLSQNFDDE
Method Summary: pull-down; 1000 pmol GST-tagged hHR23A/B and 1000 pmol NusA–VprFL in 500 μl PBS, 30 min 4 °C; TEV cleavage overnight at 4 °C; Glutathion-Sepharose 4B beads; anti-His immunoblot
Recorded Conditions: both partners purified
Assay Endpoint: binding result

>>> test_result("recombinant VprFL H45A (natural protein, HIV-1 Vpr, full length, with H45A; source: recombinant NusA–VprFL) MEQAPEDQGPQREPYNEWTLELLEELKSEAVRHFPRIWLHNLGQAIYETYGDTWAGVEAIIRILQQLLFIHFRIGCRHSRIGVTRQRRARNGASRS")
"binds"
>>> test_result("recombinant VprFL L67A/I70A (natural protein, HIV-1 Vpr, full length, with L67A and I70A; also called L67A/I70A double mutant; source: recombinant NusA–VprFL) MEQAPEDQGPQREPYNEWTLELLEELKSEAVRHFPRIWLHNLGQHIYETYGDTWAGVEAIIRILQQALFAHFRIGCRHSRIGVTRQRRARNGASRS")
"binds"
